Assay: qHTS RealTime-Glo MT Cell Viability Assay in HepG2 cells - 40 hour (AID 1224870); note: nearly all actives have a fitted effect of over 50% in size
Conditions: RealTime-Glo luminescence; series mostly up to 76.8 µM
Inconclusive results are not listed. Active and inactive are the calls of the source. Calls come from the whole dose curve; as a rule, active = well fitted cell-killing curve with a large enough effect in the repeat runs; inconclusive = weak or mixed curves, or effect the other way; inactive = flat fitted curve, though single readings scatter.
The reply should be one of these categories: active, inactive

I would be grateful if you could indicate the recorded call for `CC(C)(C)C1CCC(=O)CC1` .
inactive

For `CC(C)CCOC(=O)/C=C/c1ccccc1` , which call appears in the assay record?
inactive

What was the test verdict on `COc1ccc2cc1Oc1ccc(cc1)C[C@H]1c3c(cc4c(c3Oc3cc5c(cc3OC)CCN(C)[C@@H]5C2)OCO4)CCN1C` ?
active

Lab log entry: `Cc1cccc(C)c1NC(=O)c1ccc(N)cc1` — outcome as called in the assay?
inactive

Hi team, can someone confirm the assay call for `COC(C)=O` ?
inactive

Field: outcome | Entry: `O[C@@H]([C@H](O)[C@H](O)CBr)[C@H](O)CBr`
inactive

Each molecule tested received a call. Report the one for `CCCC(=O)OC(C)(C)Cc1ccccc1` .
inactive

* * *

Assay: qHTS RealTime-Glo MT Cell Viability Assay in HEK293 cells - 24 hour (AID 1224886); note: nearly all actives have a fitted effect of over 50% in size; note: potency is the fitted concentration of half-maximal effect
Details: RealTime-Glo luminescence; series mostly up to 76.8 µM
Inconclusive results are not listed. Calls of active or inactive are those of the source. The call rests on the fitted dose curve; in most records, active means well fitted cell-killing curve with a large enough effect in the repeat runs; inconclusive means weak or mixed curves, or effect the other way; inactive means flat fitted curve, though single readings scatter.
READOUT TYPE: Potency

MOLECULE: CCCC(=O)OCOC(=O)C1=C(C)NC(C)=C(C(=O)OC)C1c1cccc(Cl)c1Cl (configuration not stated)
READOUT TYPE: Potency
RECORDED VALUE: inactive

MOLECULE: CC(C(=O)O)c1ccc2c(c1)[nH]c1ccc(Cl)cc12 (configuration not stated)
READOUT TYPE: Potency
RECORDED VALUE: inactive

MOLECULE: Cc1cccc(C)c1NC(=O)c1ccc(N)cc1
READOUT TYPE: Potency
RECORDED VALUE: inactive

MOLECULE: CC(C)=CCNc1ncnc2c1ncn2[C@@H]1O[C@H](CO)[C@@H](O)[C@H]1O
READOUT TYPE: Potency
RECORDED VALUE: inactive

MOLECULE: CCCC(=O)OC(C)(C)Cc1ccccc1
READOUT TYPE: Potency
RECORDED VALUE: inactive

What value of measured Potency is listed for `O=C(O)c1cc(O)c2ccccc2c1O` ?
43.6 µM (active)

Which Potency is reported for this molecule? `CCc1ccc(Br)cc1`
inactive

# Potency lookup, item CC(C)(c1cc(Br)c(OCC(Br)CBr)c(Br)c1)c1cc(Br)c(OCC(Br)CBr)c(Br)c1 (configuration not stated)
inactive

Field request: Potency | item: `CCCCCCCC`
inactive

Param item = `COc1ccc(NC(=O)CC(C)=O)cc1` ; retrieve measured Potency.
inactive

* * *

Assay: qHTS assay for small molecule agonists of the p53 signaling pathway - cell viability (AID 651633); note: nearly all actives have a fitted effect of over 30% in size
Details: p53RE-bla HCT-116 viability, ATP luminescence, 16 h; series mostly up to 83.3 µM
Results filed as inconclusive are left out. The source made the active and inactive calls. Calls follow the shape of the full dose curve.
// allowed return values: active, inactive

Outcome logged for `CCCCCC/C=C\CCCCCCCC(=O)O` in this assay:
inactive

I'd appreciate the recorded outcome for `Cc1cccc2cccnc12` from this test.
inactive

Fill in: this test's call for `Cc1ccc(C)cc1` is ___
inactive

What classification did `C=C(C)c1cccc(C(=C)C)c1` end up with in this test?
inactive

Hi, do you know how `c1ccc(C(O[C@@H]2CCCN(CCc3ccc4c(c3)OCO4)C2)c2ccccc2)cc1` came out in this test?
inactive

Per the assay record, what outcome was assigned to `O=[N+]([O-])c1cccc(C(F)(F)F)c1` ?
inactive

Any idea what this test logged for `[Cl][Pt-2]([Cl])([Cl])[Cl]` ?
inactive

// param item: `CC[N+](CC)(CC)CCOC(=O)C(C1CCCC1)C1CCCC1` ; yields the recorded call
inactive

Tell me the recorded outcome of this test for `O=C1CCCCCCCCCCCCCCCO1` .
inactive

Look up the recorded call for `CCCC(=O)OC(C)(C)Cc1ccccc1` in this test.
inactive

Any idea what this test logged for `Cc1ccc(C(=O)O)cc1` ?
inactive

Short answer needed: outcome of this test for OC1CCC(C2CCCCC2)CC1 (centres undefined) ?
inactive

// return assay outcome for `Cc1cc(-n2nc3ccc(Cl)cc3n2)c(O)c(C(C)(C)C)c1`
inactive

How did this test come out for `Cc1cc(C)c(/C=C2\C(=O)Nc3ccccc32)[nH]1` ?
active
